system: Mycobacterium tuberculosis; experiment: Growth inhibition of Mycobacterium bovis BCG ATCC 35743 at dormant stage at 30 ug/ml measured after 12 days by nitrate reductase dye based two fold dilution method relative to control; format: functional; settings: BCG str. ATCC 35743, 288 h, read-out: GI
List of inhibition of growth at 30 µg/mL values.
Value expressed in %; do not type the unit.

# return recorded inhibition of growth at 30 µg/mL for input Cc1ccc2cc(/C=C3\SC(=S)N(CC(=O)O)C3=O)c(Cl)nc2c1 11.4

Annotate the molecule O=C(O)CCN1C(=O)/C(=C/c2cc3ccccc3nc2Cl)SC1=S with its measured inhibition of growth at 30 µg/mL. 49.1

Dear colleague, please send me the reported inhibition of growth at 30 µg/mL for COc1ccc2cc(/C=C3\SC(=S)NC3=O)c(Cl)nc2c1 when you can. 10.1

Annotate the molecule O=C1NC(=S)S/C1=C\c1cc2ccccc2nc1Cl with its measured inhibition of growth at 30 µg/mL. -43.1

Hello, please tell me recorded inhibition of growth at 30 µg/mL for this one: COc1ccc2cc(/C=C3\SC(=S)N(CC(=O)O)C3=O)c(Cl)nc2c1 0.66

Consider the molecule Cc1ccc2nc(Cl)c(/C=C3\SC(=S)N(CC(=O)O)C3=O)cc2c1 . State its measured inhibition of growth at 30 µg/mL. -0.24

Return inhibition of growth at 30 µg/mL for the following molecule: CCOc1ccc2nc(Cl)c(/C=C3\SC(=S)NC3=O)cc2c1 94.5

Report measured inhibition of growth at 30 µg/mL; entry is O=C(O)CCN1C(=O)/C(=C/c2cc3cc(F)ccc3nc2Cl)SC1=S 59.8

Given the molecule O=C(O)CCN1C(=O)/C(=C/c2cc3cc(Cl)ccc3nc2Cl)SC1=S , write its reported inhibition of growth at 30 µg/mL. 56.5

Return inhibition of growth at 30 µg/mL (reported value) for this molecule: Cc1cccc2cc(/C=C3\SC(=S)NC3=O)c(Cl)nc12 60.5

Return reported inhibition of growth at 30 µg/mL. Input molecule: Cc1ccc2nc(Cl)c(/C=C3\SC(=S)NC3=O)cc2c1 -24.3

Return inhibition of growth at 30 µg/mL for the following molecule: O=C(O)CN1C(=O)/C(=C/c2cc3cc(Cl)ccc3nc2Cl)SC1=S 9.92

Please look at this molecule and report its inhibition of growth at 30 µg/mL: COc1ccc2nc(Cl)c(/C=C3\SC(=S)NC3=O)cc2c1 -6.75

Quickly give me recorded inhibition of growth at 30 µg/mL for O=C(O)CN1C(=O)/C(=C/c2cc3ccccc3nc2Cl)SC1=S 34.2

Supply recorded inhibition of growth at 30 µg/mL for O=C1NC(=S)S/C1=C\c1cc2cc(F)ccc2nc1Cl here. 76.5

Query inhibition of growth at 30 µg/mL for Cc1cccc2cc(/C=C3\SC(=S)N(CC(=O)O)C3=O)c(Cl)nc12 70

Give recorded inhibition of growth at 30 µg/mL. COc1ccc2nc(Cl)c(/C=C3\SC(=S)N(CC(=O)O)C3=O)cc2c1 32

Give a short answer stating reported inhibition of growth at 30 µg/mL for O=C(O)CN1C(=O)/C(=C/c2cc3cc(F)ccc3nc2Cl)SC1=S . 28.2

Look up and state reported inhibition of growth at 30 µg/mL for Cc1cccc2cc(/C=C3\SC(=S)N(CCC(=O)O)C3=O)c(Cl)nc12 24.8

Quick one: give measured inhibition of growth at 30 µg/mL for CCOc1ccc2nc(Cl)c(/C=C3\SC(=S)N(CC(=O)O)C3=O)cc2c1 9.17

In one line, give reported inhibition of growth at 30 µg/mL of the entry O=C1NC(=S)S/C1=C\c1cc2cc(Cl)ccc2nc1Cl . 99.2

// Input: COc1ccc2nc(Cl)c(/C=C3\SC(=S)N(CCC(=O)O)C3=O)cc2c1 . Output its inhibition of growth at 30 µg/mL only. 27.2
